# Tested on: VISA clinical isolates of MRSA (VI-MRSA) and of MSSA (VI-MSSA)
# assay_procedure: microbe, parasite or virus in culture
# Type: cell-based, Staphylococcus aureus
# measurement_context: Staphylococcus aureus, HIP13057, VI-MRSA, America
Structures can show the parent of a compound that is named as a salt.
parameter_measured: MIC (µg/mL)

molecule	parameter_measured	value_units	comparative_sign	numeric_value
NC1CCN(c2nc3c(cc2F)c(=O)c(C(=O)O)cn3-c2ccc(F)cc2F)C1 (stereo not drawn) [TFLX, tosufloxacin tosylate]	MIC	µg/mL	>	128
Cc1onc(-c2ccccc2)c1C(=O)N[C@@H]1C(=O)N2[C@@H]1SC(C)(C)[C@@H]2C(=O)O	MIC	µg/mL	=	4
Cc1cc(=O)n(C)c2c3c4c(cc12)c(C)cc(=O)n4CO3	MIC	µg/mL	=	0.125
CCn1cc(C(=O)O)c(=O)c2cc(F)c(N3CCNCC3)cc21	MIC	µg/mL	=	128
Cc1cc(=O)n2c3c(c4c(cc13)c(CO)cc(=O)n4C)OC2	MIC	µg/mL	=	0.25
C[C@@H]1CN(c2c(F)c(N)c3c(=O)c(C(=O)O)cn(C4CC4)c3c2F)C[C@H](C)N1	MIC	µg/mL	=	8
